measurement_target: h-5-HT6 receptor (Homo sapiens, UniProt P50406)
Construct: expressed in transfected cells
Sequence (P50406 whole entry): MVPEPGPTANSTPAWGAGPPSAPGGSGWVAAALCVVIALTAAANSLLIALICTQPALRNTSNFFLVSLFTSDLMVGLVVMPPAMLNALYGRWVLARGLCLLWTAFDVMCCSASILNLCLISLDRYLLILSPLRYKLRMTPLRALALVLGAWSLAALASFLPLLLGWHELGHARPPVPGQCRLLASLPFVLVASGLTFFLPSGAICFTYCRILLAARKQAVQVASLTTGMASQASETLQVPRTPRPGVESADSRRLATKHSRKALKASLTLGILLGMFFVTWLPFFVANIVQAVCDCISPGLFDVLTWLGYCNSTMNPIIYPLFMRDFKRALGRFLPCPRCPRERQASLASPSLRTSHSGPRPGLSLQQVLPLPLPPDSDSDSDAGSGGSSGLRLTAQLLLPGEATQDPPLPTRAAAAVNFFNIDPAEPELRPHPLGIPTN
run_description: 5-HT6 receptor binding assay (displacement of [3H]-LSD)
condition_parameters: membranes of HEK293 cells expressing h-5-HT6 receptor, 1 nM [3H]-LSD; read-out: Ki (5HT6)
Description: Displacement of Radioligands Binding to The Following Cloned Human Receptors Cells from stable clonal cell lines expressing the corresponding receptor (5-HT6, α1-adrenergic, dopamine D2 or histamine H1 receptors) were washed with PBS (w/o Ca^++, Mg^++) and harvested in PBS with 0.02% EDTA. […] Protein concentration was determined (BCA-Kit; Pierce) and aliquots stored at −80° C. or in liquid nitrogen for long-term storage. […]
Where a name gives a salt, the structure may show the parent alone.
measurement_name: Ki

What value of Ki has been recorded for this entry: Cc1ccc(NS(=O)(=O)c2ccc(C)c(N3CCN(C)CC3)c2)c(OC(F)F)c1 [Example 91, hydrochloride] < 50 nM

What value of Ki has been recorded for this entry: Cc1cc(NS(=O)(=O)c2ccc(C)c(N3CCN(C)CC3)c2)ccc1OC(F)F [Example 87, hydrochloride] < 50 nM

What value of Ki has been recorded for this entry: COc1ccc(S(=O)(=O)Nc2ccccc2OC(F)F)cc1N1CCNCC1 [Example 26, hydrochloride] < 10 nM

What value of Ki has been recorded for this entry: CCN(c1ccccc1OC(F)F)S(=O)(=O)c1ccc(OC)c(N2CCNCC2)c1 [Example 31, hydrochloride] < 50 nM

What value of Ki has been recorded for this entry: O=S(=O)(Nc1cccc(OC(F)F)c1)c1cccc(N2CCNCC2)c1 [Example 68, hydrochloride] < 10 nM

What value of Ki has been recorded for this entry: Cc1ccc(S(=O)(=O)Nc2ccccc2OC(F)F)cc1N1CCN(C)CC1 [Example 5, hydrochloride] < 50 nM

What value of Ki has been recorded for this entry: Cc1ccc(S(=O)(=O)Nc2ccc(OC(F)F)c(OC(F)F)c2)cc1N1CCNCC1 [Example 52, hydrochloride] < 50 nM

What value of Ki has been recorded for this entry: CCCN(c1ccccc1OC(F)F)S(=O)(=O)c1ccc(OC)c(N2CCNCC2)c1 [Example 36, hydrochloride] < 10 nM

What value of Ki has been recorded for this entry: COc1ccc(S(=O)(=O)Nc2cccc(OC(F)F)c2)cc1N1CCN(C)CC1 [Example 35, hydrochloride] < 10 nM

What value of Ki has been recorded for this entry: Cc1ccc(OC(F)F)cc1NS(=O)(=O)c1ccc(C)c(N2CCNCC2)c1 [Example 58, hydrochloride] < 10 nM

What value of Ki has been recorded for this entry: Cc1ccc(S(=O)(=O)Nc2cc(Cl)ccc2OC(F)F)cc1N1CCN(C)CC1 [Example 56, hydrochloride] < 50 nM

What value of Ki has been recorded for this entry: Cc1ccc(S(=O)(=O)Nc2ccc(F)cc2OC(F)F)cc1N1CCNCC1 [Example 74, hydrochloride] < 50 nM

What value of Ki has been recorded for this entry: COc1ccc(OC(F)F)cc1NS(=O)(=O)c1ccc(C)c(N2CCNCC2)c1 [Example 80, trifluoroacetate] < 50 nM

What value of Ki has been recorded for this entry: COc1ccc(S(=O)(=O)Nc2cccc(OC(F)F)c2)cc1N1CCNCC1 [Example 24, hydrochloride] < 10 nM

What value of Ki has been recorded for this entry: COc1ccc(S(=O)(=O)Nc2ccc(C)cc2OC(F)F)cc1N1CCN(C)CC1 [Example 70, hydrochloride] < 10 nM

====

Please respond with reported Ki for every item in the list.
measurement_target: h-5-HT6 receptor (Homo sapiens)
Construct: expressed in transfected cells
run_description: 5-HT6 receptor binding assay (displacement of [3H]-LSD)
condition_parameters: membranes of HEK293 cells expressing h-5-HT6 receptor, 1 nM [3H]-LSD; read-out: Ki (5HT6)
Counter-ions that a name gives are not always drawn.

What value of Ki has been recorded for this entry: Cc1ccc(S(=O)(=O)Nc2cccc(OC(F)F)c2)cc1N1CCCN(C)CC1 [Example 101, hydrochloride] < 10 nM

What value of Ki has been recorded for this entry: Cc1ccc(NS(=O)(=O)c2ccc(C)c(N3CCCNCC3)c2)cc1OC(F)F [Example 98, hydrochloride] < 50 nM

What value of Ki has been recorded for this entry: CCCN(c1ccccc1OC(F)F)S(=O)(=O)c1ccc(C)c(N2CCNCC2)c1 [Example 11, hydrochloride] < 500 nM

What value of Ki has been recorded for this entry: COc1ccc(NS(=O)(=O)c2ccc(OC)c(N3CCNCC3)c2)cc1OC(F)F [Example 25, hydrochloride] < 10 nM

What value of Ki has been recorded for this entry: Cc1ccc(OC(F)F)c(NS(=O)(=O)c2ccc(C)c(N3CCN(C)CC3)c2)c1 [Example 92, hydrochloride] < 10 nM

What value of Ki has been recorded for this entry: CCCN(c1ccc(OC)c(OC(F)F)c1)S(=O)(=O)c1ccc(OC)c(N2CCNCC2)c1 [Example 33, hydrochloride] < 10 nM

What value of Ki has been recorded for this entry: Cc1ccc(S(=O)(=O)Nc2ccccc2OC(F)F)cc1N1CCCNCC1 [Example 97, hydrochloride] < 10 nM

What value of Ki has been recorded for this entry: COc1ccc(S(=O)(=O)Nc2cc(C)ccc2OC(F)F)cc1N1CCN(C)CC1 [Example 67, hydrochloride] < 10 nM

What value of Ki has been recorded for this entry: Cc1ccc(S(=O)(=O)N(CC2CC2)c2ccccc2OC(F)F)cc1N1CCNCC1 [Example 9, hydrochloride] < 500 nM

What value of Ki has been recorded for this entry: COc1ccc(S(=O)(=O)N(C)c2cccc(OC(F)F)c2)cc1N1CCNCC1 [Example 32, hydrochloride] < 10 nM

What value of Ki has been recorded for this entry: Cc1ccc(S(=O)(=O)Nc2cccc(OC(F)F)c2)cc1N1CCN(C)CC1 [Example 94, hydrochloride] < 10 nM

What value of Ki has been recorded for this entry: Cc1ccc(S(=O)(=O)Nc2ccccc2OC(F)F)cc1N1CCCN(C)CC1 [Example 100, hydrochloride] < 10 nM

What value of Ki has been recorded for this entry: O=S(=O)(c1cccc(OC(F)F)c1)c1cccc(N2CCNCC2)c1 [Example 45, hydrochloride] < 10 nM

What value of Ki has been recorded for this entry: Cc1ccc(S(=O)(=O)Nc2cccc3c2OC(F)(F)O3)cc1N1CCNCC1 [Example 8, hydrochloride] < 500 nM

What value of Ki has been recorded for this entry: Cc1ccc(S(=O)(=O)N(C)c2ccccc2OC(F)F)cc1N1CCNCC1 [Example 16, hydrochloride] < 500 nM

====

measurement_target: h-5-HT6 receptor (Homo sapiens, UniProt P50406)
Construct: expressed in transfected cells
run_description: 5-HT6 receptor binding assay (displacement of [3H]-LSD)
condition_parameters: membranes of HEK293 cells expressing h-5-HT6 receptor, 1 nM [3H]-LSD; read-out: Ki (5HT6)
Structures can show the parent of a compound that is named as a salt.
measurement_name: Ki

What value of Ki has been recorded for this entry: COc1ccc(S(=O)(=O)Nc2cc(OC(F)F)ccc2C)cc1N1CCN(C)CC1 [Example 55, hydrochloride] < 10 nM

What value of Ki has been recorded for this entry: COc1ccc(S(=O)(=O)Nc2ccccc2OC(F)F)cc1N1CCN(C)CC1 [Example 37, hydrochloride] < 10 nM

What value of Ki has been recorded for this entry: Cc1ccc(S(=O)(=O)N(CC2CC2)c2cccc(OC(F)F)c2)cc1N1CCNCC1 [Example 10, hydrochloride] < 50 nM

What value of Ki has been recorded for this entry: COc1ccc(S(=O)(=O)c2cccc(OC(F)F)c2)cc1N1CCN(C)CC1 [Example 48, hydrochloride] < 10 nM

What value of Ki has been recorded for this entry: "COc1cc(NS(=O)(=O)c2ccc(OC)c(N3CCN(C)CC3)c2)ccc1OC(F)F" < 50 nM

What value of Ki has been recorded for this entry: COc1ccc(S(=O)(=O)Nc2ccc(OC(F)F)c(OC(F)F)c2)cc1N1CCN(C)CC1 [Example 51, hydrochloride] < 10 nM

What value of Ki has been recorded for this entry: COc1ccc(S(=O)(=O)Nc2ccc(C)c(OC(F)F)c2)cc1N1CCNCC1 [Example 18, hydrochloride] < 10 nM

What value of Ki has been recorded for this entry: COc1ccc(NS(=O)(=O)c2ccc(OC)c(N3CCN(C)CC3)c2)cc1OC(F)F [Example 38, hydrochloride] < 10 nM

What value of Ki has been recorded for this entry: COc1ccc(NS(=O)(=O)c2ccc(C)c(N3CCNCC3)c2)cc1OC(F)F [Example 85, hydrochloride] < 500 nM

What value of Ki has been recorded for this entry: Cc1ccc(S(=O)(=O)Nc2ccc(F)cc2OC(F)F)cc1N1CCN(C)CC1 [Example 79, trifluoroacetate] < 50 nM

What value of Ki has been recorded for this entry: "COc1cc(NS(=O)(=O)c2ccc(C)c(N3CCNCC3)c2)ccc1OC(F)F" < 50 nM

What value of Ki has been recorded for this entry: COc1ccc(S(=O)(=O)Nc2ccc3c(c2)OC(F)(F)O3)cc1N1CCN(C)CC1 [Example 66, hydrochloride] < 10 nM

What value of Ki has been recorded for this entry: CCCN(c1cccc(OC(F)F)c1)S(=O)(=O)c1ccc(C)c(N2CCNCC2)c1 [Example 12, hydrochloride] < 50 nM

What value of Ki has been recorded for this entry: Cc1ccc(S(=O)(=O)Nc2ccc3c(c2)OC(F)(F)O3)cc1N1CCNCC1 [Example 84, hydrochloride] < 50 nM

What value of Ki has been recorded for this entry: O=S(=O)(Nc1ccccc1OC(F)F)c1cccc(N2CCNCC2)c1 [Example 41, hydrochloride] < 10 nM
